The measured values listed here are drawn from patent US6914045B2.

system: Enterococcus sp.; test: in vitro antibacterial evaluation, MIC by broth dilution; type: cell-based; settings: strain GC 4558; broth dilution, 18 hours at 35° C.
endpoint_name: MIC Enterococcus avium (GC 4558)

Consider the reported MIC Enterococcus avium (GC 4558) for these molecules:
CC(c1ccccc1)C1NC(=O)CNC(=O)C(CO)NC(=O)C(C(O)C2CNC(=N)N2C2OC(CO)C(O)C(O)C2O)NC(=O)C(C(O)C2CNC(=N)N2)NC(=O)C(Cc2ccc(OC3OC(CO)C(OC4OC5COC(c6ccc(C(=O)O)cc6)OC5C(O)C4O)C(O)C3O)cc2)NC1=O (stereo not drawn); >64 µg/mL
CC(c1ccccc1)C1NC(=O)CNC(=O)C(CO)NC(=O)C(C(O)C2CNC(=N)N2C2OC(CO)C(O)C(O)C2O)NC(=O)C(C(O)C2CNC(=N)N2)NC(=O)C(Cc2ccc(OC3OC(CO)C(OC4OC5COC(c6cccc(OCc7ccc([N+](=O)[O-])cc7)c6)OC5C(O)C4O)C(O)C3O)cc2)NC1=O (stereo not drawn); >64 µg/mL

We now examine a further molecule.
Request the reported MIC Enterococcus avium (GC 4558) associated with COc1cc(C2OCC3OC(OC4C(CO)OC(Oc5ccc(CC6NC(=O)C(C(C)c7ccccc7)NC(=O)CNC(=O)C(CO)NC(=O)C(C(O)C7CNC(=N)N7C7OC(CO)C(O)C(O)C7O)NC(=O)C(C(O)C7CNC(=N)N7)NC6=O)cc5)C(O)C4O)C(O)C(O)C3O2)cc([N+](=O)[O-])c1O (stereo not drawn)
>64 µg/mL

###

tested on: Streptococcus sp.; experiment: in vitro antibacterial evaluation, MIC by broth dilution; type: cell-based; details: broth dilution, 18 hours at 35° C.
endpoint_name: MIC Streptococcus pneumoniae (ATCC 6301) (µg/mL)
Kindly answer with a numeric value in µg/mL, unit omitted.

Consider the reported MIC Streptococcus pneumoniae (ATCC 6301) for these compounds:
CC(c1ccccc1)C1NC(=O)CNC(=O)C(CO)NC(=O)C(CC2CNC(=N)N2C2OC(CO)C(O)C(O)C2O)NC(=O)C(CC2CNC(=N)N2)NC(=O)C(Cc2ccc(OC3OC(CO)C(OC4OC(COCc5ccc(OCc6ccccc6)cc5)C(O)C(O)C4O)C(O)C3O)cc2)NC1=O (stereo not shown) [Example 246]; 2
CC(c1ccccc1)C1NC(=O)CNC(=O)C(CO)NC(=O)C(C(O)C2CN(Cc3ccc4ccccc4c3)C(=N)N2C2OC(CO)C(O)C(O)C2O)NC(=O)C(C(O)C2CNC(=N)N2)NC(=O)C(Cc2ccc(OC3OC(CO)C(OC4OC(CO)C(O)C(O)C4O)C(O)C3O)cc2)NC1=O (stereo not shown) [Example 67]; 128

Request the reported MIC Streptococcus pneumoniae (ATCC 6301) associated with COc1ccc2cc(COCC3OC(OC4C(CO)OC(Oc5ccc(CC6NC(=O)C(C(C)c7ccccc7)NC(=O)CNC(=O)C(CO)NC(=O)C(C(O)C7CNC(=N)N7C7OC(CO)C(O)C(O)C7O)NC(=O)C(C(O)C7CNC(=N)N7)NC6=O)cc5)C(O)C4O)C(O)C(O)C3O)ccc2c1 (stereo not shown) [Example 230]
0.12

###

The reader will find reported MIC Staphylococcus aureus (GC 4545) values listed item by item below.
system: Staphylococcus sp.; experiment: in vitro antibacterial evaluation, MIC by broth dilution; assay type: cell-based; details: broth dilution, 18 hours at 35° C.; strain GC 4545
Kindly answer with a numeric value in µg/mL, unit omitted.

COc1ccc2cc(COC3C(CO)OC(OC4C(CO)OC(Oc5ccc(CC6NC(=O)C(C(C)c7ccccc7)NC(=O)CNC(=O)C(CO)NC(=O)C(CC7CNC(=N)N7C7OC(CO)C(O)C(O)C7O)NC(=O)C(CC7CNC(=N)N7)NC6=O)cc5)C(O)C4O)C(O)C3O)ccc2c1 (stereo not shown) [Example 245a]; 2

Request the reported MIC Staphylococcus aureus (GC 4545) associated with CCOc1cc(COCC2OC(OC3C(CO)OC(Oc4ccc(CC5NC(=O)C(C(C)c6ccccc6)NC(=O)CNC(=O)C(CO)NC(=O)C(C(O)C6CNC(=N)N6C6OC(CO)C(O)C(O)C6O)NC(=O)C(C(O)C6CNC(=N)N6)NC5=O)cc4)C(O)C3O)C(O)C(O)C2O)ccc1OC (stereo not shown)
2

Request the reported MIC Staphylococcus aureus (GC 4545) associated with COc1cc(C2OCC3OC(OC4C(CO)OC(Oc5ccc(CC6NC(=O)C(C(C)c7ccccc7)NC(=O)CNC(=O)C(CO)NC(=O)C(C(O)C7CNC(=N)N7C7OC(CO)C(O)C(O)C7O)NC(=O)C(C(O)C7CNC(=N)N7)NC6=O)cc5)C(O)C4O)C(O)C(O)C3O2)ccc1[N+](=O)[O-] (stereo not shown)
2

###

The reader will find reported MIC Staphylococcus aureus (GC 4541) values listed item by item below.
tested on: Staphylococcus sp.; assay: in vitro antibacterial evaluation, MIC by broth dilution; type: cell-based; settings: strain GC 4541; broth dilution, 18 hours at 35° C.

CC(c1ccccc1)C1NC(=O)CNC(=O)C(CO)NC(=O)C(C(O)C2CN(Cc3ccccc3)C(=N)N2C2OC(CO)C(O)C(O)C2O)NC(=O)C(C(O)C2CNC(=N)N2)NC(=O)C(Cc2ccc(OC3OC(CO)C(OC4OC(CO)C(O)C(O)C4O)C(O)C3O)cc2)NC1=O (stereo not drawn) [Example 59]; >128 µg/mL

Return MIC Staphylococcus aureus (GC 4541) measured with Staphylococcus sp. given this compound: CC(C)C(=O)Nc1cc(CC2NC(=O)C(C(C)c3ccccc3)NC(=O)CNC(=O)C(CO)NC(=O)C(C(O)C3CNC(=N)N3C3OC(CO)C(O)C(O)C3O)NC(=O)C(C(O)C3CNC(=N)N3)NC2=O)ccc1O (stereo not drawn) [Example 15]
>128 µg/mL

Return MIC Staphylococcus aureus (GC 4541) measured with Staphylococcus sp. given this compound: CCCCCCCN1CC(C(O)C2NC(=O)C(C(O)C3CNC(=N)N3)NC(=O)C(Cc3ccc(OC4OC(CO)C(OC5OC(CO)C(O)C(O)C5O)C(O)C4O)cc3)NC(=O)C(C(C)c3ccccc3)NC(=O)CNC(=O)C(CO)NC2=O)N(C2OC(CO)C(O)C(O)C2O)C1=N (stereo not drawn) [Example 71]
>128 µg/mL

###

The reader will find reported MIC Enterococcus faecalis (GC 2691) values listed item by item below.
system: Enterococcus sp.; experiment: in vitro antibacterial evaluation, MIC by broth dilution; assay type: cell-based; conditions: broth dilution, 18 hours at 35° C.
Kindly answer with a numeric value in µg/mL, unit omitted.

Consider the reported MIC Enterococcus faecalis (GC 2691) for these compounds:
CC(c1ccccc1)C1NC(=O)CNC(=O)C(CO)NC(=O)C(C(O)C2CNC(=N)N2C2OC(CO)C(O)C(O)C2O)NC(=O)C(C(O)C2CNC(=N)N2)NC(=O)C(Cc2ccc(OC3OC(CO)C(OC4OC(COCC=C(c5ccccc5)c5ccccc5)C(O)C(O)C4O)C(O)C3O)cc2)NC1=O (centres unmarked); 4
CC(c1ccccc1)C1NC(=O)CNC(=O)C(CO)NC(=O)C(C(O)C2CNC(=N)N2C2OC(CO)C(O)C(O)C2O)NC(=O)C(C(O)C2CNC(=N)N2)NC(=O)C(Cc2ccc(OC3OC(CO)C(OC4OC(COCc5cccs5)C(O)C(O)C4O)C(O)C3O)cc2)NC1=O (centres unmarked); 32
N=C1NCC(C(O)C2NC(=O)C(Cc3ccc(OC4OC(CO)C(OC5OC6COC(c7ccccc7)OC6C(O)C5O)C(O)C4O)cc3)NC(=O)C(CC3CCCCC3)NC(=O)CNC(=O)C(CO)NC(=O)C(C(O)C3CNC(=N)N3C3OC(CO)C(O)C(O)C3O)NC2=O)N1 (centres unmarked); 4
CC(c1ccccc1)C1NC(=O)CNC(=O)C(CO)NC(=O)C(C(O)C2CNC(=N)N2C2OC(CO)C(O)C(O)C2O)NC(=O)C(C(O)C2CNC(=N)N2)NC(=O)C(Cc2ccc(OC3OC(CO)C(OC4OC5COC6(CC(C)(C)CC(C)(C)C6)OC5C(O)C4O)C(O)C3O)cc2)NC1=O (centres unmarked); 2
N=C1NCC(C(O)C2NC(=O)C(Cc3ccc(OC4OC(CO)C(OC5OC6COC(Cc7ccccc7)OC6C(O)C5O)C(O)C4O)cc3)NC(=O)C(CC3CCCCC3)NC(=O)CNC(=O)C(CO)NC(=O)C(C(O)C3CNC(=N)N3C3OC(CO)C(O)C(O)C3O)NC2=O)N1 (centres unmarked); 4

We now examine a further compound.
Return MIC Enterococcus faecalis (GC 2691) measured with Enterococcus sp. given this compound: CC(c1ccccc1)C1NC(=O)CNC(=O)C(CO)NC(=O)C(C(O)C2CNC(=N)N2C2OC(CO)C(O)C(O)C2O)NC(=O)C(C(O)C2CNC(=N)N2)NC(=O)C(Cc2ccc(OC3OC(CO)C(OC4OC(CO)C(OCC=Cc5ccc(N(C)C)cc5)C(O)C4O)C(O)C3O)cc2)NC1=O (centres unmarked) [Example 243a]
32
